Cited source: PubChem BioAssay (NCI)

# Tested on: UO-31 renal
# Assay Info: NCI tumour cell line growth inhibition, 48 h; in the data active means GI50 below about 0.43 µM; inactive means the rest
Where a SMILES comes first, the peptide text is derived from it. Bridges are numbered along the chain shown (N, C = ends). Roman numbers before positions name the chains, in order. [ ]: non-standard residue; d: D form. The star is where a group is joined. Heptadecanoyl = CCCCCCCCCCCCCCCCC(=O)*; Phg = N[CH](C(=O)O)c1ccccc1
Choose the fitting class; nothing outside active, inactive is accepted.

INPUT: Dear all, I need the recorded test outcome for CCC1=C[C@H]2CN(CCc3c([nH]c4ccccc34)[C@@](C(=O)OC)(c3cc4c(cc3OC)N(C)[C@H]3[C@@](O)(C(=O)OC)[C@H](OC(C)=O)[C@]5(CC)[C@@H]6C[C@@H]6CN6CC[C@]43[C@@H]65)C2)C1 , thank you.
OUTPUT: active

INPUT: Hi, do you know how N=C(N)c1ccc(-c2ccc(-c3ccco3)o2)cc1F came out in this test?
OUTPUT: inactive

INPUT: Please let me know the test result on file for Cc1cc(Cl)ccc1Nc1nc(C(F)(F)F)ccc1C(=O)N/N=C/c1c(Cl)cccc1Cl .
OUTPUT: active

INPUT: Dear colleague, could you share the recorded outcome for O=C(Nc1ncc(Cc2ccc(Cl)cc2)s1)c1ccc2c(c1)OCCO2 when you have a moment?
OUTPUT: active

INPUT: For CCCCCCCCCCCCCCCCC(=O)N1CCCC1C(=O)NCC(=O)NC(C(=O)N1CCCC1C(=O)NC(CO)C(=O)NC(Cc1ccc(O)cc1)C(=O)NC(CCCCNC(=O)C1CCCN1C(=O)C(CCCCN)NC(=O)C(CCCCN)NC(=O)C(CCCCN)NC(=O)C(CCCNC(=N)N)NC(=O)C(CCCCN)NC(=O)C(N)C(C)C)C(=O)NC(CC(C)C)C(=O)NC(CCCNC(=N)N)C(=O)N1CCCC1C(=O)NCC(N)=O)c1ccccc1 (stereo not given) (I: Heptadecanoyl-PG[Phg]PSYKLRPG-NH2 / II: H-VKRKKKP; amide I:7-II:C; configuration not given here) , which call appears in the assay record?
OUTPUT: inactive
